Values were extracted from ChEMBL document CHEMBL5360580.

Tested on: SARS-CoV-2
Test: Antiviral activity against SARS-CoV-2 infected in African green monkey Vero E6 cells assessed as inhibition of viral replication at 1 uM incubated for 24 hrs by IFA assay relative to control
Assay type: functional
Details: Severe acute respiratory syndrome coronavirus 2, Vero C1008
RECORDED_METRIC: inhibition at 1 µM (%)
One number for each entry, in %.

# example entries with known answers
O=C(Nc1ccc(C(F)(F)F)cc1)c1cc(Cl)cnc1O | 50
O=C(Nc1ccc(C(F)(F)F)cc1)c1cc(Cl)c(F)cc1O | 95
CC(=O)c1cc(Cl)cc(C(=O)Nc2ccc(C(F)(F)F)cc2)c1O | 50
O=C(Nc1ccc(C(F)(F)F)cc1Cl)c1cc(Cl)ccc1O | 79
O=C(Nc1ccc(C(F)(F)F)cc1)c1cc(Cl)ccc1O | 95

// inhibition at 1 µM value for O=C(Nc1ccc(SC(F)(F)F)cc1)c1cc(Cl)c(F)cc1O : 87

* * *

Assay: Selectivity index, ratio of CC50 for cytotoxicity against African green monkey Vero E6 to EC50 for antiviral activity against SARS-CoV-2 infected in African green monkey Vero E6 cells
Assay type: toxicity, cell-based, Vero C1008
Conditions: read-out: Ratio CC50/EC50
Field: selectivity ratio. Provide a value for each of the compounds that follow.
One number for each entry.

# example entries with known answers
O=C(Nc1ccc(SC(F)(F)F)cc1)c1cc(Cl)c(F)cc1O | 1.63
O=C(Nc1ccc(OC(F)(F)F)cc1)c1cc(Cl)c(F)cc1O | 4.73
O=C(Nc1ccc(C(F)(F)F)cc1)c1cc(Cl)c(F)cc1O | 3.73
O=C(Nc1ccc(C(F)(F)F)c(Cl)c1)c1cc(Cl)c(F)cc1O | 1.69

Here's the next entry for you.
// selectivity ratio value for O=C(Nc1ccc(C(F)(F)F)cc1)c1cc(F)ccc1O : 0.98

* * *

Assay: Half life in ICR mouse at 2.5 mg/kg, iv measured upto 24 hrs by LC-MS/MS analysis
Assay type: ADME, organism-based
Details: ICR, in vivo
RECORDED_METRIC: half-life
Write your answer as a measured quantity: the number, then the unit.

// half-life value for C[C@H](N)C(=O)Oc1cc(F)c(Cl)cc1C(=O)Nc1ccc(OC(F)(F)F)cc1.Cl : 2.92 h

* * *

Experiment: Observed AUC (0 to infinity) in ICR mouse at 2.5 mg/kg, iv measured upto 24 hrs by LC-MS/MS analysis
Assay type: ADME, organism-based
Set-up: dose 2.5 mg/kg, time < 24 hrs, route iv
Conditions: ICR, in vivo
RECORDED_METRIC: AUC(0-inf) (ng·h/mL)
One number for each entry, in ng·h/mL.

// AUC(0-inf) value for C[C@H](N)C(=O)Oc1cc(F)c(Cl)cc1C(=O)Nc1ccc(OC(F)(F)F)cc1.Cl : 6700

* * *

Experiment: AUClast in ICR mouse at 2.5 mg/kg, iv measured upto 24 hrs by LC-MS/MS analysis
Type: ADME, organism-based
Parameters: dose 2.5 mg/kg, time < 24 hrs, route iv
Conditions: ICR, in vivo
RECORDED_METRIC: AUC(0-t) at 24 h (ng·h/mL)
Answers are plain numbers, in ng·h/mL.

// AUC(0-t) at 24 h value for C[C@H](N)C(=O)Oc1cc(F)c(Cl)cc1C(=O)Nc1ccc(OC(F)(F)F)cc1.Cl : 6670

* * *

Assay: Oral bioavailability in ICR mouse at 30 mg/kg measured upto 24 hrs by LC-MS/MS analysis
Assay type: ADME, organism-based
Details: in vivo
RECORDED_METRIC: bioavailability (%)
Numbers only, in %.

// bioavailability value for O=C(Nc1ccc(OC(F)(F)F)cc1)c1cc(Cl)c(F)cc1O : 12.7

* * *

System: SARS-CoV-2
Assay: Antiviral activity against SARS-CoV-2 infected in African green monkey Vero E6 cells assessed as inhibition of viral replication at 1 uM incubated for 24 hrs by IFA assay relative to control
Type: functional
Settings: Severe acute respiratory syndrome coronavirus 2, Vero C1008
Field: inhibition at 1 µM. Provide a value for each of the compounds that follow.
Numbers only, in %.

O=C(NCc1ccc(C(F)(F)F)cc1)c1cc(Cl)ccc1O | 55
O=C(Nc1ccc(C(F)(F)F)c(Cl)c1)c1cc(Cl)c(F)cc1O | 95
O=C(Nc1ccc(OC(F)(F)F)cc1)c1cc(Cl)ccc1O | 55

Record inhibition at 1 µM for all entries; do not skip any.
1. O=C(Nc1ccc(C(F)(F)F)cc1)c1cc(Cl)cc([N+](=O)[O-])c1O
2. O=C(Nc1ccc(C(F)(F)F)cc1)c1cc(F)ccc1O
3. O=C(Nc1ccc(OC(F)(F)F)cc1)c1cc(Cl)c(F)cc1O

50
92
91

* * *

System: Vero C1008
Experiment: Cytotoxicity against African green monkey Vero E6 cells assessed as reduction in cell viability measured after 48 hrs by CCK-8 assay
Format: toxicity, cell-based
Conditions: chlorocebus sabaeus, vero c1008, 48 h
RECORDED_METRIC: CC50 (µM)
Numbers only, in µM.

O=C(Nc1ccc(C(F)(F)F)c(Cl)c1)c1cc(Cl)c(F)cc1O | 4.52
O=C(Nc1ccc(C(F)(F)F)cc1)c1cc(Cl)c(F)cc1O | 3.73
O=C(Nc1ccc(SC(F)(F)F)cc1)c1cc(Cl)c(F)cc1O | 2.63
O=C(Nc1ccc(OC(F)(F)F)cc1)c1cc(Cl)c(F)cc1O | 4.73
O=C(Nc1ccc(C(F)(F)F)cc1)c1cc(F)ccc1O | 1.61

// CC50 value for O=C(Nc1ccc([N+](=O)[O-])cc1Cl)c1cc(Cl)ccc1O [NICLOSAMIDE] : 1.96

* * *

Assay: Cmax in ICR mouse at 2.5 mg/kg, iv measured upto 24 hrs by LC-MS/MS analysis
Type: ADME, organism-based
Parameters: dose 2.5 mg/kg, time < 24 hrs, route iv
Conditions: in vivo
RECORDED_METRIC: Cmax (ng/mL)
Numbers only, in ng/mL.

// Cmax value for C[C@H](N)C(=O)Oc1cc(F)c(Cl)cc1C(=O)Nc1ccc(OC(F)(F)F)cc1.Cl : 3360

* * *

Assay: Observed MRT (0 to infinity) in ICR mouse at 2.5 mg/kg, iv measured upto 24 hrs by LC-MS/MS analysis
Format: ADME, organism-based
Settings: ICR, in vivo
RECORDED_METRIC: MRT inf (h)
One number for each entry, in h.

// MRT inf value for C[C@H](N)C(=O)Oc1cc(F)c(Cl)cc1C(=O)Nc1ccc(OC(F)(F)F)cc1.Cl : 5.02

* * *

Test: Aqueous solubility of compound at 0.5 mg/mL in presence of acetonitrile by HPLC analysis
Assay type: physicochemical
Details: buffer
Field: solubility. Provide a value for each of the compounds that follow.
Numbers only, in µg/mL.

Record solubility for all entries; do not skip any.
1. O=C(Nc1ccc(OC(F)(F)F)cc1)c1cc(Cl)c(F)cc1O
2. CC(=O)Oc1cc(F)c(Cl)cc1C(=O)Nc1ccc(OC(F)(F)F)cc1
3. CC(C)C(=O)Oc1cc(F)c(Cl)cc1C(=O)Nc1ccc(OC(F)(F)F)cc1
4. O=C(Nc1ccc([N+](=O)[O-])cc1Cl)c1cc(Cl)ccc1O [NICLOSAMIDE]

1. 0.1
2. 0.71
3. 0.53
4. 0.16
